Target: LAP2, Q96RT1
Sequence (Q96RT1 other isoform, or with tags, fused parts or gaps): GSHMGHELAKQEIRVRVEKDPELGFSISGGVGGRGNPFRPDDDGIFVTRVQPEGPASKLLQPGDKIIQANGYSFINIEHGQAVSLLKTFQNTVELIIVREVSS
Assay: holdup assay
Design: key: below the threshold = too weak to quantify, mostly under pKd 3.1 to 4
Conditions: plain residues with an end cap or a label only (N-terminal biotin on a linker: ado-ado)
attribute_measured: pKd

>  <binder>
QRYPGNQTTC [CCL24, O00175]

>  <val>
below the threshold

$$$$
>  <binder>
ATKDKKITTV [EXOC4, Q96A65]

>  <val>
3.54

$$$$
>  <binder>
YAEKRMLTEV [KCNA6, P17658]

>  <val>
below the threshold

$$$$
>  <binder>
IGHEDLETAV [DGKI, O75912]

>  <val>
4.56

$$$$
>  <binder>
NTALVESEDL [PALLS, Q8WX93;Q8WX93-1]

>  <val>
below the threshold

$$$$

Pending binder:
Query :: What measured pKd goes with KLQNPNQSVV [TYRP1, P17643] ?
Result :: below the threshold
